Target: T1, human IL-25 expressed with a C-terminal myc-myc-hexahistidine tag (human)
T1 construct: also called hIL-25-MMH; Human IL-25-MMH
T1 chain: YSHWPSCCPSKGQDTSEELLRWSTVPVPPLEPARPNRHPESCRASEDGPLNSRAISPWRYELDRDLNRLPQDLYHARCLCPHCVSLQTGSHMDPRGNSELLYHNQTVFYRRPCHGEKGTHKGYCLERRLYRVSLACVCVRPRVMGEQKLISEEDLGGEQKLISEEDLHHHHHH
Experiment: competition ELISA, 2 nM hIL-25-MMH binding to coated hIL-17RB-hFc; (*) below theoretical bottom of the assay
readout-type: IC50
Show the value, then the unit it is measured in.

Sample records with IC50:
{"columns": ["binder", "IC50"],
 "data": [
  ["H4H10907P (antibody, human IgG4, V domains shown, H4H prefix = human IgG4 Fc) VH: EVQLVESGGGLVQPGGSLRLSCAASGFTFSNYDIHWVRQVPGKGLEWISTIGSAGDTFYPGSVKGRFTISRENAKNSLYLQMNSLRAGDSAVYYCARGDNWNYVSWFFDLWGRGTLVTVSS VL: DIQLTQSPSFLSTSVGDRVTITCWASQDISSFLAWYQQKPGKAPKLLIYAASVLQSGVPSRFSGSGSGTEFTLTISSLQPEDFATYYCQQVNSYPITFGQGTRLEIK", "0.55 nM"],
  ["H4H10905P (antibody, human IgG4, V domains shown, H4H prefix = human IgG4 Fc) VH: QVQLVQSGAEVKKPGTSVKVSCKASGYTFTNYGISWVRQAPGQGLEWLGWISAYNDNTDYAQKLQARVTMTTDTFTSTAYMDLRSLRSDDTAVYYCARVPITGTTSSFDFWGQGTLVTVSS VL: DIQMTQSPSSLSASVGDRVTISCRASQTIYSYLNWFQQKPGKAPKLLIYDASSLQSGVPSRFSGSGSGTHFTLTISSLQPEDFATYFCQQTYSTPLTFGGGTKVEIK", "0.53 nM"],
  ["H4H10876P (antibody, human IgG4, V domains shown, H4H prefix = human IgG4 Fc) VH: QVQLVQSGAEVKKPGASVKVSCKASEYTFSNYGISWVRQAPGQGLEWLGWIGAYSGFTKYAQKVQDRITMTTDASTTTAYMELRNLRSDDTAVYYCARVGTGTDSYFDFWGQGTLVTVSS VL: DIQMTQSPSSLSASVGDRVTITCRASQNINSHLNWYQQKPGKAPKLLIYTASSLQSGVPLRFSGSGSGTDFTLTISSLQPEDFGIYICQQTYITPLTFGGGTKVEIK", "0.65 nM"],
  ["H4H10861P (antibody, human IgG4, V domains shown, H4H prefix = human IgG4 Fc) VH: QVQLQESGPGLVKPSETLSLTCTVSGASISNYYWSWIRQPPGKGLEWIGYIFYSGNTNYNPSLKSRVTISVDTSKNQFSLKLSSVTAADTAVYYCARVRFSDYELNWFDPWGQGTLVTVSS VL: DIVMTQSPDSLAVFLGERATINCRSSQSVFLGSNNKNYLAWYQQKPGQPPKLLIYWASSRESGVPDRFSGSGSGTDFTLTINSLQAEDVAVYYCQQYFITPLTFGGGTKVEIK", "0.2 nM"]
]}

Problem: Identify IC50 associated with the binder H4H10897P (antibody, human IgG4, V domains shown, H4H prefix = human IgG4 Fc) VH: QVQLQESGPGLVKPSETLSLTCTVSGGSISDYYWSWIRQPPGKGLEWIGHIYYSGSTNHNPSLKSRVAISVDTSKNQFSLRLYSVTAADTAVYYCARDGYSSSSGFYYFGMDVWGQGTTVTVSS VL: DIQLTQSPSFLSASVGDRVTITCWASQDINSYLAWYQQKPGKAPKLLIFAASTLQGGVPSRFSGSGSGTEFTLTISSLQPEDFATYYCQHLSSFPPTFGQGTRLEIK
Solution: 0.32 nM

These entries and their values trace back to patent US20160083466A1.
